For each of the compounds below, state its metabolised at 0.25 h, 1 µM.
experiment: Metabolic stability in human liver microsomes assessed as compound metabolized at 1 uM after 15 mins; format: ADME, microsome; details: read-out: Drug metabolism
Answers are plain numbers, in %.

1. CCCC[C@@H](CCO)Nc1nc(N)nc2cc(F)ccc12 | 39
2. CCC[C@@H](CCO)Nc1nc(N)nc2ccc(F)cc12 | 22
3. CCC[C@@H](CCO)Nc1nc(N)nc2c(F)cccc12 | 43

Hey, can you go through the list below and give me metabolised at 0.25 h, 1 µM for every item?
1. CCCC[C@@H](CCO)Nc1nc(N)nc2ccc(C)cc12
2. CCC[C@@H](CCO)Nc1nc(N)nc2cc(C)ccc12
3. CCCC[C@@H](CCO)Nc1nc(N)nc2cc(OC)ccc12
4. CCCC[C@@H](CCO)Nc1nc(N)nc2cc(C)ccc12
5. CCC[C@@H](CCO)Nc1nc(N)nc2ccccc12

24
44
37
70
23
